- MEASUREMENT_PROTOCOL: NCI Yeast Anticancer Drug Screen. Data for the bub3 strain (AID 167)
- TEST_CONTEXT: S. cerevisiae bub3 mutant strain, at 1.2 µM, stronger effect = higher value
This is part of a sample that, as a whole, favours compounds with a hit. Of some 79,000 tested, about 15% had one in any assay.
Below, each of the compounds is paired with its reported growth inhibition value.
ASSAY_READOUT: growth inhibition (%)

{"COMPOUND": "CN(C)Cc1cc(N=Nc2ccc(Cl)cc2)ccc1OC(=O)c1ccccc1", "MEAS_VALUE": -2}
{"COMPOUND": "S=C1SCN(C2CCCCC2)CN1C1CCCCC1", "MEAS_VALUE": -18}
{"COMPOUND": "CCn1c(O)c(C=Nc2ccccc2)s/c1=N/Nc1nc(-c2ccccc2)cs1", "MEAS_VALUE": -5}
{"COMPOUND": "O/N=C\\c1c(O)ccc2ccccc12", "MEAS_VALUE": -4}
{"COMPOUND": "CCOC1=C/C(=N\\Nc2ccc([N+](=O)[O-])cc2)CCC1", "MEAS_VALUE": -3}
{"COMPOUND": "Cc1c2cccc(Sc3ccccc3)c2c2c3c(cccc13)[S+](c1ccccc1)C2 (stereo unspecified)", "MEAS_VALUE": -5}
{"COMPOUND": "CC[N+](CC)(CC)c1ccccc1", "MEAS_VALUE": 16}
{"COMPOUND": "CCOC1(c2cccc([N+](=O)[O-])c2)c2ccccc2Oc2ccccc21", "MEAS_VALUE": -1}
{"COMPOUND": "CC(=O)OC1CC2C(C)(C)C(=O)C=C[C@]2(C)C2CCC3(C)C(=CCC3[C@H](CO)C[C@H](O)C(=O)C(C)(C)O)[C@]12C (stereo partly specified)", "MEAS_VALUE": -24}
{"COMPOUND": "Cc1ccc2c(c1)C1(SC(C)C(=O)N1c1ccc(Cl)cc1)C(=O)N2 (stereo unspecified)", "MEAS_VALUE": 3}
{"COMPOUND": "CC(=O)Nc1ccc2c(c1)Cc1cc(N=C3C=CC(=O)O3)ccc1-2", "MEAS_VALUE": -1}

* * *

- MEASUREMENT_PROTOCOL: NCI Yeast Anticancer Drug Screen. Data for the mec2-1 strain (AID 157)
- TEST_CONTEXT: S. cerevisiae mec2-1 strain, at 100.0 µM
Compounds without any hit were thinned out: in the full panel of roughly 79,000, 15% have a hit. Activity calls are given as the source filed them. No stated cut-off is given here; in the data, active means growth inhibition above about 70%; inactive means the rest.
Possible outcomes: active, inactive

{"MOLECULE": "CC1=C(SCc2ccccc2)C(=O)c2ccccc2C1=O", "CAT": "active"}
{"MOLECULE": "Oc1ccc(SCc2ccc(NCc3ccccc3)cc2)cc1", "CAT": "active"}
{"MOLECULE": "COC(=O)NC1C(C)OC(OC2C/C=C(/C)C3C=CC4C(OC5CC(OC6CC(O)C(OC7CC(O)C(OC)C(C)O7)C(C)O6)C(O)C(C)O5)C(C)CC(C)C4C3(C)/C(O)=C3\\C(=O)OC4(CC(C)C(CO)=CC4/C=C\\2C)C3=O)CC1(C)[N+](=O)[O-] (centres undefined)", "CAT": "inactive"}
{"MOLECULE": "CNC(=O)OCc1c(COC(=O)NC)c(-c2ccc(Cl)c(Cl)c2)n2c1SCC2", "CAT": "inactive"}
